Values from ChEMBL document CHEMBL1201862

system: HT-29; assay: NCI tumour cell line growth inhibition, 48 h
Calls of active or inactive are those of the source. Rule as the data show it: active = GI50 up to about 1.1 µM and inactive = higher.
Classes used: TRUE for active, FALSE for inactive

>>> discretelabel("COc1cc2c(cc1OCCCNC(=O)c1cc3ccccc3[nH]1)N=C[C@@H]1CCCN1C2=O")
"TRUE"
>>> discretelabel("OCN(CO)c1ccc2c(c1)Cc1cc(F)ccc1-2")
"FALSE"
>>> discretelabel("COc1ccccc1N1CCN(Cn2c(=O)oc3cccnc32)CC1")
"FALSE"
>>> discretelabel("Nc1nccc(-c2c[nH]c3cc(Br)ccc23)n1 [MERIDIANIN D]")
"FALSE"
>>> discretelabel("O=C1C(Cl)N(c2ccc(Cl)cc2Cl)C1c1c[nH]c2ccccc12 (stereo unspecified)")
"FALSE"
>>> discretelabel("COC(=O)/C=C\\C(C#N)(C#N)/N=C/c1ccc(C)cc1")
"FALSE"
